Tested on: CP217
Test: qHTS profiling for inhibitors of Plasmodium falciparum proliferation (AID 504749); also: nearly all actives have a fitted effect of over 60% in size
Details: P. falciparum in erythrocytes, SYBR Green DNA, 72 h; series mostly up to 28.7 µM
Inconclusive results are not listed. Calls of active or inactive are those of the source. Calls follow the shape of the dose curve; as a rule, active = well fitted inhibition curve with a large enough effect; inconclusive = small, poorly fitted or top-dose-only effect; inactive = flat fitted curve, though single readings scatter.
Labels: YES for active, NO for inactive

INSERT INTO measurements (smiles_str, study_target, assigned_category) VALUES
  ('CC(=O)OCC(=O)[C@@]1(OC(C)=O)[C@@H](C)C[C@H]2[C@@H]3C[C@H](F)C4=CC(=O)C=C[C@]4(C)[C@@]3(F)[C@@H](O)C[C@@]21C', 'CP217', 'NO'),
  ('CCCn1c(=O)[nH]c(=O)c2[nH]cnc21', 'CP217', 'NO'),
  ('CC(C)COC(=O)OCN1C(=O)CN(CCN2CC(=O)N(COC(=O)OCC(C)C)C(=O)C2)CC1=O', 'CP217', 'NO'),
  ('C#C[C@]1(OC(C)=O)CC[C@H]2[C@@H]3CCC4=C[C@@H](OC(C)=O)CC[C@@H]4[C@H]3CC[C@@]21C', 'CP217', 'NO'),
  ('Cc1cc(N)c2cc(NC(=O)Nc3ccc4nc(C)cc(N)c4c3)ccc2n1', 'CP217', 'YES'),
  ('CN1CCC[C@@H]1c1cccnc1', 'CP217', 'NO');

----------
Test: qHTS of pediatric cancer cell lines to identify multiple opportunities for drug repurposing: Primary screen for BT-37 cells (AID 1347094)
Conditions: BT-37 viability, CellTiter-Glo luminescence, 48 h; series mostly up to 57.3 µM
Inconclusive results are not listed. Calls of active or inactive are those of the source. Calls follow the shape of the dose curve; as a rule, active = well fitted cell-killing curve with a large enough effect; inconclusive = small, poorly fitted or top-dose-only effect; inactive = flat fitted curve, though single readings scatter.
Labels: Yes = active, No = inactive

INSERT INTO measurements (molecule, assigned_category) VALUES
  ('CC1(C)O[C@@H]2C[C@H]3[C@@H]4CCC5=CC(=O)CC[C@]5(C)[C@@]4(F)[C@@H](O)C[C@]3(C)[C@]2(C(=O)CCl)O1', 'No'),
  ('COc1cccc2c1C(=O)c1c(O)c3c(c(O)c1C2=O)C[C@@](O)(C(=O)CO)C[C@@H]3O[C@H]1C[C@H](N)[C@H](O)[C@H](C)O1', 'Yes'),
  ('C[C@]12CC[C@@H]3c4ccc(O)cc4CC[C@H]3[C@@H]1C[C@@H](O)[C@@H]2O', 'No'),
  ('CCCC(=O)Nc1ccc(OCC(O)CNC(C)C)c(C(C)=O)c1 (stereo unspecified)', 'No'),
  ('Cc1c(C(C)C)c(=O)n(-c2ccccc2)n1C', 'No'),
  ('Cc1ncc(CSSCc2cnc(C)c(O)c2CO)c(CO)c1O', 'No'),
  ('CC1(C)O[C@@H]2C[C@H]3[C@@H]4C[C@H](F)C5=CC(=O)C=C[C@]5(C)[C@H]4[C@@H](O)C[C@]3(C)[C@]2(C(=O)CO)O1', 'No'),
  ('Cc1cc(O)c(C(C)C)cc1Cl', 'No'),
  ('C[C@@H]1C[C@H]2[C@@H]3C[C@H](F)C4=CC(=O)C(Cl)=C[C@]4(C)[C@@]3(F)[C@@H](O)C[C@]2(C)[C@@]1(O)C(=O)CO', 'No'),
  ('CC(C)(C(=O)c1cccnc1)c1cccnc1', 'No'),
  ('CNC(=O)CN(CCN(CCN(CC(=O)[O-])CC(=O)NC)CC(=O)[O-])CC(=O)[O-].O.[Gd+3]', 'No'),
  ('CC(=O)Oc1ccc(C(c2ccc(OC(C)=O)cc2)c2ccccn2)cc1', 'No'),
  ('CCCCCCCCCCCCCCCC[N+](C)(C)CC', 'Yes'),
  ('CC(=O)CC(c1ccc([N+](=O)[O-])cc1)c1c(O)c2ccccc2oc1=O (stereo unspecified)', 'No'),
  ('Cc1onc(-c2c(Cl)cccc2Cl)c1C(=O)N[C@@H]1C(=O)N2[C@@H]1SC(C)(C)[C@@H]2C(=O)O', 'No'),
  ('CC(=O)OCC(=O)[C@@]1(O)[C@H](C)C[C@H]2[C@@H]3CCC4=CC(=O)C=C[C@]4(C)[C@@]3(F)[C@@H](O)C[C@@]21C', 'No'),
  ('CC(=O)N(O)CCCCCNC(=O)CCC(=O)N(O)CCCCCNC(=O)CCC(=O)N(O)CCCCCN', 'Yes'),
  ('CCC(C(=O)OCCN(CC)CC)c1ccccc1 (stereo unspecified)', 'No'),
  ('CCCCCCCCCCCCCCCC[N+](C)(C)CCN(Cc1ccc(OC)cc1)c1ncccn1', 'Yes'),
  ('COc1cccc2c1C(=O)c1c(O)c3c(c(O)c1C2=O)C[C@@](O)(C(C)=O)C[C@@H]3O[C@H]1C[C@H](N)[C@H](O)[C@H](C)O1', 'Yes'),
  ('NCCc1ccn[nH]1', 'No');

----------
System: CP291
Assay: qHTS profiling for inhibitors of Plasmodium falciparum proliferation (AID 504749); also: nearly all actives have a fitted effect of over 60% in size; also: potency is read from the fitted curve at half-maximal effect
Conditions: P. falciparum in erythrocytes, SYBR Green DNA, 72 h; series mostly up to 28.7 µM
Inconclusive results are not listed. Active and inactive are the calls of the source. Calls follow the shape of the dose curve; as a rule, active = well fitted inhibition curve with a large enough effect; inconclusive = small, poorly fitted or top-dose-only effect; inactive = flat fitted curve, though single readings scatter.
quantity: Potency

INSERT INTO assay_data (molecule, result) VALUES
  ('Oc1ccc(Cl)c2cccnc12', 'inactive'),
  ('N[C@@H](Cc1cnc[nH]1)C(=O)O', 'inactive'),
  ('CCCCCCCCCCCCCCNCCO', 'inactive'),
  ('COc1cc2c(cc1OC)C(=O)C(CC1CCN(Cc3ccccc3)CC1)C2 (configuration not stated)', 'inactive'),
  ('CCCN1CCCC[C@H]1C(=O)Nc1c(C)cccc1C', 'inactive'),
  ('C#C[C@]1(OC(C)=O)CC[C@H]2[C@@H]3CCC4=C[C@@H](OC(C)=O)CC[C@@H]4[C@H]3CC[C@@]21C', 'inactive'),
  ('C[C@]12CC[C@@H]3c4ccc(O)cc4CC[C@H]3[C@@H]1CC[C@@H]2O', 'inactive'),
  ('CC(=O)c1ccc2c(c1)N(CCCN1CCC(CCO)CC1)c1ccccc1S2', 'inactive'),
  ('COC(=O)[C@@H]1CC2=CC(=O)CC[C@]2(C)[C@@]23O[C@@H]2C[C@@]2(C)[C@@H](CC[C@@]24CCC(=O)O4)[C@H]13', 'inactive'),
  ('CCN1CCN(c2cc3c(cc2F)c(=O)c(C(=O)O)cn3C2CC2)CC1', 'inactive'),
  ('CCN(CC)C(=O)N1CCN(C)CC1', 'inactive'),
  ('CCOC(=O)n1ccn(C)c1=S', 'inactive'),
  ('NC(CO)(CO)CO', 'inactive'),
  ('NC(=NCCCCCCN=C(N)/N=C(\N)Nc1ccc(Cl)cc1)/N=C(\N)Nc1ccc(Cl)cc1', '1350 nM (active)'),
  ('COc1ccc(CCN2CCC(Nc3nc4ccccc4n3Cc3ccc(F)cc3)CC2)cc1', '4260 nM (active)'),
  ('CCn1cc(C(=O)O)c(=O)c2cnc(N3CCCC3)nc21', 'inactive'),
  ('Cc1cc(=O)n(-c2ccccc2)n1C', 'inactive'),
  ('CCCCC(CC)CN=C(N)NC(N)=NCCCCCCN=C(N)NC(N)=NCC(CC)CCCC (configuration not stated)', '1690 nM (active)'),
  ('NCCc1ccn[nH]1', 'inactive'),
  ('CC(=O)OCC(=O)NCCCOc1cccc(CN2CCCCC2)c1', 'inactive'),
  ('COc1c2occc2c(OC)c2c(=O)cc(C)oc12', 'inactive'),
  ('COc1cc(NS(C)(=O)=O)ccc1Nc1c2ccccc2nc2ccccc12', '1690 nM (active)');

----------
Test: qHTS of pediatric cancer cell lines to identify multiple opportunities for drug repurposing: Primary screen for OHS-50 cells (AID 1347103); also: nearly all actives have a fitted effect of over 40% in size
Conditions: OHS-50 osteosarcoma viability, CellTiter-Glo luminescence, 48 h; series mostly up to 57.3 µM
Results filed as inconclusive are left out. Active and inactive are the calls of the source. Calls come from the whole dose curve; as a rule, active = well fitted cell-killing curve with a large enough effect; inconclusive = small, poorly fitted or top-dose-only effect; inactive = no such curve, though single readings can be large or run the other way.
Labels: 1.0 for active, 0.0 for inactive

INSERT INTO measurements (smiles_str, assigned_category) VALUES
  ('Cc1cc2c(cc1CC(=O)c1sccc1S(=O)(=O)Nc1onc(C)c1Cl)OCO2', 0.0),
  ('O=C1OC2(c3ccc(O)cc3Oc3cc(O)ccc32)c2ccccc21', 0.0),
  ('CC(=O)Oc1ccc(C(=C2CCCCC2)c2ccc(OC(C)=O)cc2)cc1', 0.0),
  ('CCN1CCN(c2cc3c(cc2F)c(=O)c(C(=O)O)cn3C2CC2)CC1', 0.0),
  ('CCOC(=O)n1ccn(C)c1=S', 0.0),
  ('OC[C@H]1O[C@H](O[C@]2(CCl)O[C@H](CCl)[C@@H](O)[C@@H]2O)[C@H](O)[C@@H](O)[C@H]1Cl', 0.0),
  ('CCCCC1=NC2(CCCC2)C(=O)N1Cc1ccc(-c2ccccc2-c2nn[nH]n2)cc1', 0.0),
  ('C#C[C@]1(OC(C)=O)CC[C@H]2[C@@H]3CCC4=C[C@@H](OC(C)=O)CC[C@@H]4[C@H]3CC[C@@]21C', 1.0),
  ('Oc1c(I)cc(Cl)c2cccnc12', 1.0),
  ('CC(=O)OCC(=O)[C@@]12N=C(C)O[C@@H]1C[C@H]1[C@@H]3CCC4=CC(=O)C=C[C@]4(C)[C@H]3[C@@H](O)C[C@@]12C', 0.0),
  ('CCC(=O)c1c(O)cc(O)cc1O', 0.0),
  ('COc1cc(C=C2CCC/C(=C\c3ccc(O)c(OC)c3)C2=O)ccc1O', 1.0),
  ('CC(=O)Nc1c(I)cc(I)c(C(=O)O)c1I', 0.0),
  ('C=C1C(=C/C=C2\CCC[C@]3(C)[C@@H]([C@H](C)/C=C/[C@@H](O)C4CC4)CC[C@@H]23)C[C@@H](O)C[C@@H]1O', 1.0),
  ('Cc1c(C(C)C)c(=O)n(-c2ccccc2)n1C', 0.0),
  ('COc1cccc2c1C(=O)c1c(O)c3c(c(O)c1C2=O)C[C@@](O)(C(=O)CO)C[C@@H]3O[C@H]1C[C@H](N)[C@H](O)[C@H](C)O1', 1.0),
  ('CC(=O)O[C@]1(C(C)=O)CC[C@H]2[C@@H]3C[C@H](C)C4=CC(=O)CC[C@]4(C)[C@H]3CC[C@@]21C', 1.0),
  ('C[C@]12C=CC(=O)C=C1[C@@H](F)C[C@@H]1[C@@H]2[C@@H](O)C[C@@]2(C)[C@H]1CC[C@]2(O)C(=O)CO', 0.0);

Measured values drawn from PubChem BioAssay (NCATS) for this set.
